- target_desc: human P2X2/3 receptor (Homo sapiens (Human), UniProt P56373+Q9UBL9)
- Sequence (P56373 whole entry): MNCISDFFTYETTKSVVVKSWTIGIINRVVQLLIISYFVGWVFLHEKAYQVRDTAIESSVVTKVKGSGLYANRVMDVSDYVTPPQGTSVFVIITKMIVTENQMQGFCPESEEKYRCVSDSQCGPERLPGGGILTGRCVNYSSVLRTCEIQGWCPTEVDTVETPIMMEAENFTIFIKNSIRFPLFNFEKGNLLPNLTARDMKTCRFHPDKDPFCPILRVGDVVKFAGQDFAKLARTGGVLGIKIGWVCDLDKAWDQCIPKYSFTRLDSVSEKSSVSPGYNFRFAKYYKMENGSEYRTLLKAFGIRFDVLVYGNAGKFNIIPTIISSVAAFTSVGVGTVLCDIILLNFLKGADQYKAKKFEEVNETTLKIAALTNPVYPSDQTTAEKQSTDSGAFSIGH
- Sequence (Q9UBL9 whole entry): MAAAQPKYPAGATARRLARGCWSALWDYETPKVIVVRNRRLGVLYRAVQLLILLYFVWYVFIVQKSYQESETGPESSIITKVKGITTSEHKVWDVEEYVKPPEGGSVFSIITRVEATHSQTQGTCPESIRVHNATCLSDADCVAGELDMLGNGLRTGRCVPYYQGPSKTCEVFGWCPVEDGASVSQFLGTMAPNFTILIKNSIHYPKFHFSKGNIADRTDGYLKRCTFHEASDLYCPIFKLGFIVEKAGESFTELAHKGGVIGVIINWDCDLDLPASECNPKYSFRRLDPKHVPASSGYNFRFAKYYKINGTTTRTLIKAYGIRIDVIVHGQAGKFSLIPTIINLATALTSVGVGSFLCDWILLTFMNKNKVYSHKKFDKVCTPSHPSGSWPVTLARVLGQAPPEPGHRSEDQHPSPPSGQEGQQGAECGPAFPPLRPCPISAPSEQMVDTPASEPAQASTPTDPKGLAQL
- assay_name: Intracellular calcium measurement (FLIPR, Fluo-4) of antagonist activity at human P2X2/3 receptors
- Format: cell-based
- settings: human P2X2/3, FLIPR calcium assay, agonist α,β-Me-ATP; read-out: hP2X2/3 IC50
measured_metric: pIC50
API: returns pIC50 as number; meaning -log10 of concentration in mol/L.

// pIC50 value for Cc1ccc([C@@H](C)NC(=O)c2cc(OC[C@H]3CCCO3)cc(-c3ncc(C4CCC4)s3)c2)nn1 [Example 270] : 7.00

Record Cc1cnc(-c2cc(OC[C@H]3CCOC3)cc(C(=O)NC(C)c3ncc(Cl)cc3F)c2)s1 (stereo partly shown) [Example 65] , field pIC50: 7.27

Entry Cc1cnc(-c2cc(OC3COC3)cc(C(=O)N[C@H](C)c3ccc(C(F)(F)F)nc3)c2)s1 [Example 148] , pIC50 reported as 6.10

Lab note: measured pIC50 of Cc1cnc(-c2cc(OC[C@@H]3COCCN3C)cc(C(=O)N[C@H](C)c3cnc(C(F)(F)F)nc3)c2)s1 [Example 362] was 5.99

Hello, the source for this data is patent US10174016B2, in case you need it.
